biological target: adenosine 3 receptor (Homo sapiens, UniProt P0DMS8); construct: expressed in transfected cells; host or cells: CHO cells; test: Agonist activity, CHO cells transfected with human adenosine receptor and CRE-SPAP reporter; forskolin-enhanced cAMP (A3); assay type: cell-based; conditions: ratio to NECA; * data are minimum values since preparation was found, after testing, to contain an inactive impurity
# Lookup of reported A3, EC50 as a ratio of that of NECA keyed by entry

CCC(CC)Nc1nc(NC2CCNC2)nc2c1ncn2C1OC(c2nc(C)no2)C(O)C1O (stereo not shown) = >284
CCC(CC)Nc1nc(NC(CO)C(C)C)nc2c1ncn2C1OC(c2nc(C)no2)C(O)C1O (stereo not shown) = >284
CCC(CC)Nc1nc(NCCN2CCCCC2)nc2c1ncn2[C@@H]1O[C@H](c2nc(C)no2)[C@@H](O)[C@H]1O.O=CO = >314
Cc1noc(C2OC(n3cnc4c(N)nc(NCCc5ccccn5)nc43)C(O)C2O)n1.O=CO.O=CO (stereo not shown) = >215
CCc1noc([C@H]2O[C@@H](n3cnc4c(NC(CC)CC)nc(N[C@H]5CC[C@H](N)CC5)nc43)[C@H](O)[C@@H]2O)n1.O=CO = >117

Form: item CCc1noc(C2OC(n3cnc4c(NC(CC)CC)nc(NC5CCNC5)nc43)C(O)C2O)n1 (stereo not shown) ; test system adenosine 3 receptor (Homo sapiens, UniProt P0DMS8); A3, EC50 as a ratio of that of NECA: >284

The recorded A3, EC50 as a ratio of that of NECA with adenosine 3 receptor (Homo sapiens, UniProt P0DMS8) for CCc1noc(C2OC(n3cnc4c(NCC(c5ccccc5)c5ccccc5)nc(NC5CCNC5)nc43)C(O)C2O)n1 (stereo not shown) was >304

* * *

Measured A3, EC50 as a ratio of that of NECA values are reported for all entries that follow.
Target: adenosine 3 receptor (Homo sapiens, UniProt P0DMS8)
Construct: expressed in transfected cells; host or cells: CHO cells
Sequence (P0DMS8 1-318): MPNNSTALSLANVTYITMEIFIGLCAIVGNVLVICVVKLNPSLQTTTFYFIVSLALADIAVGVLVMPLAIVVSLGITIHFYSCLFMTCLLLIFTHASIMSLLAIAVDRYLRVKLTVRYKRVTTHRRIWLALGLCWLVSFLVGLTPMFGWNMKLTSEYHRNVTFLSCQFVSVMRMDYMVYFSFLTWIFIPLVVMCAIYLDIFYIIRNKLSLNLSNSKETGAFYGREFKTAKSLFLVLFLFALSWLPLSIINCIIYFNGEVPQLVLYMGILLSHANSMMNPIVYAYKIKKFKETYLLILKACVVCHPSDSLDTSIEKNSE
Experiment: Agonist activity, CHO cells transfected with human adenosine receptor and CRE-SPAP reporter; forskolin-enhanced cAMP (A3)
Type: cell-based
Conditions: ratio to NECA; CHO cells, SPAP readout

CCc1noc(C2OC(n3cnc4c(NCCC(C)(C)C)nc(NCCc5cn(C)cn5)nc43)C(O)C2O)n1.O=CO.O=CO (stereo not drawn) = >165
CCc1noc([C@H]2O[C@@H](n3cnc4c(NC(CC)CC)nc(NC5CCCC5)nc43)[C@H](O)[C@@H]2O)n1.O=CO = >163
CCc1noc([C@H]2O[C@@H](n3cnc4c(NCC(c5ccccc5)c5ccccc5)nc(NCCO)nc43)[C@H](O)[C@@H]2O)n1.O=CO = >130

Per the reported adenosine 3 receptor (Homo sapiens, UniProt P0DMS8) data, CCc1noc([C@H]2O[C@@H](n3cnc4c(NCC(c5ccccc5)c5ccccc5)nc(NCCc5cn(C)cn5)nc43)[C@H](O)[C@@H]2O)n1.O=C(O)C(F)F.O=C(O)C(F)F has A3, EC50 as a ratio of that of NECA of >197

// returns A3, EC50 as a ratio of that of NECA for CCc1noc([C@H]2O[C@@H](n3cnc4c(NCCc5ccccc5)nc(NCCc5cn(C)cn5)nc43)[C@H](O)[C@@H]2O)n1.O=CO.O=CO with adenosine 3 receptor (Homo sapiens, UniProt P0DMS8); value = >165

CCc1noc(C2OC(n3cnc4c(NCCC5CCCCC5)nc(NCCc5cn(C)cn5)nc43)C(O)C2O)n1.O=CO.O=CO (stereo not drawn) on adenosine 3 receptor (Homo sapiens, UniProt P0DMS8) gives A3, EC50 as a ratio of that of NECA = >165

All values here come from patent US6610665B1.
